Test system: MDA-MB-231
Assay: Antiproliferative activity against human MDA-MB-231 cells assessed as cell viability incubated for 48 hrs measured after additional incubation with MTT
Assay type: functional, cell-based
Conditions: MDA-MB-231, 48 h
VALUE KIND: IC50 (µM)

// known answers, use as guide
{"columns": ["STRUCTURE SMILES", "UNITS", "IC50"],
 "data": [
  ["O=C1C(=O)c2c(oc3c2CCN(CCCO)C3)-c2ccccc21", "µM", 2.3],
  ["CNC(=O)[C@H](C)N1CCc2c(oc3c2C(=O)C(=O)c2ccccc2-3)C1", "µM", 4.14],
  ["O=C1C(=O)c2c(oc3c2CCN(C(=O)c2ccc(F)cc2)C3)-c2ccccc21", "µM", 10.9],
  ["O=C1C(=O)c2c(oc3c2CCN(C(=O)c2ccc(Cl)cc2)C3)-c2ccccc21", "µM", 13],
  ["O=C1C(=O)c2c(oc3c2CCN(C(=O)c2ccccc2)C3)-c2ccccc21", "µM", 5.71],
  ["CNC(=O)[C@H](Cc1ccc(O)cc1)N1CCc2c(oc3c2C(=O)C(=O)c2ccccc2-3)C1", "µM", 7.26],
  ["O=C1C(=O)c2c(oc3c2CCN([C@H](CO)Cc2ccc(O)cc2)C3)-c2ccccc21", "µM", 13.6],
  ["CNC(=O)CCCN1CCc2c(oc3c2C(=O)C(=O)c2ccccc2-3)C1", "µM", 7.45],
  ["CN1CCN(C(=O)N2CCc3c(oc4c3C(=O)C(=O)c3ccccc3-4)C2)CC1", "µM", 6.08],
  ["O=C1C(=O)c2c(oc3c2CCN(C(=O)c2ccco2)C3)-c2ccccc21", "µM", 12.4]
]}

(I) O=C1C(=O)c2c(oc3c2CCN(CCCCO)C3)-c2ccccc21
(II) C[C@@H](CO)N1CCc2c(oc3c2C(=O)C(=O)c2ccccc2-3)C1
Of I and II , which one carries the higher reported IC50? Lab note: record the label of whichever item you select. I

(P) COC(=O)[C@H](Cc1ccc(O)cc1)N1CCc2c(oc3c2C(=O)C(=O)c2ccccc2-3)C1
(Q) Cc1ccc(C(=O)N2CCc3c(oc4c3C(=O)C(=O)c3ccccc3-4)C2)cc1
Looking only at measured IC50, which entry is lower, P or Q ? Lab note: record the label of whichever item you select. P
(P: 7.26 µM, Q: 14.2 µM)

(1) O=C1C(=O)c2c(oc3c2CCN([C@H](CO)Cc2ccccc2)C3)-c2ccccc21
(2) CC(=O)c1cc2c(o1)C(=O)c1ccccc1C2=O
(3) CNC(=O)CCN1CCc2c(oc3c2C(=O)C(=O)c2ccccc2-3)C1
(4) O=C1C(=O)c2c(oc3c2CCN(CCO)C3)-c2ccccc21
(5) CC(C)C[C@@H](CO)N1CCc2c(oc3c2C(=O)C(=O)c2ccccc2-3)C1
Kindly order the items shown according to IC50, from the highest value down. In your reply, arrange the labels in the requested order. 1, 3, 2, 5, 4
(1: 9.97 µM, 3: 4.5 µM, 2: 2.94 µM, 5: 2.05 µM, 4: 1.19 µM)

(P) CNC(=O)[C@H](CC(C)C)N1CCc2c(oc3c2C(=O)C(=O)c2ccccc2-3)C1
(Q) COC(=O)[C@H](C)N1CCc2c(oc3c2C(=O)C(=O)c2ccccc2-3)C1
Looking only at measured IC50, which entry is lower, P or Q ? Lab note: record the label of whichever item you select. Q
(Q: 3.14 µM, P: 7.99 µM)

Cited source: ChEMBL document CHEMBL5614424
